# test.name: protein stability index of a GFP-peptide fusion (GPS, HEK-293T) (PSI 1-6); higher = more stable;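 also: 24-mer peptide tiles fused after GFP, lentivirally expressed, FACS-sorted into six equal bins by GFP/DsRed ratio, decoded by Illumina sequencing, PSI is the read-weighted mean bin number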
# assay.conditions: treatment: MLN4924 1 uM, 8 h; c terminus: a fixed tail appended
reported.property: protein stability index
Note: the reply should be a number with no unit written.

Inquiry: Note down protein stability index recorded for ETFRQQFRQFGYQDSPGPHEALSR [ZNF396]
Reply text: 3.68

Inquiry: Note down protein stability index recorded for APLVKTLEKEEEKDLVMYSKCQRL [CDC25B]
Reply text: 4.59

Inquiry: Note down protein stability index recorded for RFPESHLPIQTPGAFLRTCLLSSN [TLE6]
Reply text: 2.6

Inquiry: Note down protein stability index recorded for DPGQVGLINSNVSMVDLTSVTLED [FAN1]
Reply text: 4.79

Inquiry: Note down protein stability index recorded for SSMLTGILWDTLLRLCAWGLASWP [POMT2]
Reply text: 2.66

Inquiry: Note down protein stability index recorded for NRLSIGLQSLDDTELRLLGRTHSA [RSAD1]
Reply text: 3.79

Inquiry: Note down protein stability index recorded for SELQAYIAQCQDSPTSGKFRRGSG [MCOLN1]
Reply text: 4.31

Inquiry: Note down protein stability index recorded for KDEEGRLRDPATITTLRVPVLRPM [PPP2R2B]
Reply text: 4.04

Inquiry: Note down protein stability index recorded for LLQCLEDLDANLRKLNSRLFVIRG [CRY1]
Reply text: 2.68

Inquiry: Note down protein stability index recorded for RDLEKQKEEVRAALEQREQDAVDQ [TRIM29]
Reply text: 5.66

Inquiry: Note down protein stability index recorded for QLATSSFLLFLLTGIVSVAFLLLP [MOSPD3]
Reply text: 2.88

Inquiry: Note down protein stability index recorded for ESKTDGDDTETVPSEQSHASGKLR [TCF25]
Reply text: 5.56

Inquiry: Note down protein stability index recorded for ALWQVLARDCFATGRHYWEVDVQE [TRIM14]
Reply text: 2.4

Inquiry: Note down protein stability index recorded for GARSKGQCPEPPIVVHCSAGIGRT [PTPN9]
Reply text: 3.77

Inquiry: Note down protein stability index recorded for NRDLRKASVTIQARAEQEEEFISN [CCDC6]
Reply text: 5.05

Inquiry: Note down protein stability index recorded for MRSPQNLHSQEDDDSSSESGSGNG [NOL4L]
Reply text: 5.51

Inquiry: Note down protein stability index recorded for PMALLTIGSSSEKEIDDVIDEIIS [TFE3]
Reply text: 3.29

Inquiry: Note down protein stability index recorded for LALSPDLSLSNATVLTRSLFLGRI [FANCE]
Reply text: 2.24

Inquiry: Note down protein stability index recorded for PWGVQGGQESEVPYKREEEALEER [PKD2L1]
Reply text: 5.56

Inquiry: Note down protein stability index recorded for EKRAKRLSSAPSSRAEPIRTTVFQ [ZMAT5]
Reply text: 3.86

Inquiry: Note down protein stability index recorded for LKQRTVIEMFKSITHSTVGSKGEK [EHMT1]
Reply text: 3.17

Inquiry: Note down protein stability index recorded for SDRPFKCNQCGKCFIQSSHLIRHQ [ZNF8]
Reply text: 3.76

Inquiry: Note down protein stability index recorded for RCLIWGRKPKVIECSYTSADGQRH [DHCR7]
Reply text: 2.77

Inquiry: Note down protein stability index recorded for MMHGLKPLSLVKRTDLKDLIIFDK [CEP70]
Reply text: 2.92

Inquiry: Note down protein stability index recorded for DHRGRMVKHQCCPGCGYFCTAGNF [EHMT1]
Reply text: 3.14

Inquiry: Note down protein stability index recorded for PPLPGKALKRQLPFRGDEGIFEES [SNX12]
Reply text: 4.74

Inquiry: Note down protein stability index recorded for VLLMHMPAEQAFWCLVQICEKYLP [TBC1D10A]
Reply text: 2.88

Inquiry: Note down protein stability index recorded for GCWATDAAPAAGLCGAGSEPSIAP [RSPH3]
Reply text: 4.41

Inquiry: Note down protein stability index recorded for SSYSSCYSFGSGGGYGSSFGGVDG [KRT17]
Reply text: 2.53

Inquiry: Note down protein stability index recorded for YPCLEKPRIWSLAHTATASAVEGA [IRX6]
Reply text: 2.98

Inquiry: Note down protein stability index recorded for LKKSSQVPRTEAPAPASSTPQEPW [PDLIM7]
Reply text: 4.76

Inquiry: Note down protein stability index recorded for SLQNSLECAMETTEEQTRQERQGP [NECAB1]
Reply text: 5.22

Inquiry: Note down protein stability index recorded for VNDHLLNFVRERTLDKRWRVRKEA [PDS5B]
Reply text: 3.08

Inquiry: Note down protein stability index recorded for QNYISQKEDASEFQILKYLFQIDV [MIA2]
Reply text: 2.25

Inquiry: Note down protein stability index recorded for MSGKSPVESSLNVKTKKNAPSATI [FBXO34]
Reply text: 4.6

Inquiry: Note down protein stability index recorded for AQTPLHVAAETGHTSTARLLLHRG [RIPK4]
Reply text: 3.91

Inquiry: Note down protein stability index recorded for PSSLNSPSSYNCSQSILPLEHGSI [ESR2]
Reply text: 3.13

Inquiry: Note down protein stability index recorded for FQNRRMKHKRQMQDPQLHSPFSGS [VENTX]
Reply text: 3.48

Inquiry: Note down protein stability index recorded for QTPTKEELDAIIEEVDEDGSGTID [TNNC2]
Reply text: 5.16

Inquiry: Note down protein stability index recorded for QLAKELGATYLELHSLDDFYIGKY [RHOBTB3]
Reply text: 2.33

Inquiry: Note down protein stability index recorded for LFYILTFVGAIFNGLTLLILGVIG [RTN2]
Reply text: 3.01

Inquiry: Note down protein stability index recorded for RVPLGRLELLEEVLALGLRTDVGI [RSAD1]
Reply text: 2.15

Inquiry: Note down protein stability index recorded for PTSPVYRGSSSGPSSPARVSTTPR [MTUS2]
Reply text: 4.95

Inquiry: Note down protein stability index recorded for MEKFREDEGFIKEEERPLPEKEYQ [KCNA1]
Reply text: 5.53

Inquiry: Note down protein stability index recorded for TGTVHRIDNTTVIYNSNIFTDPFF [KCNA1]
Reply text: 3.05

Inquiry: Note down protein stability index recorded for LNMFLAIINDTYSEVKEELAGQKD [PKD2L1]
Reply text: 2.37

Inquiry: Note down protein stability index recorded for YSNTDANILFYVVGLRNTLTRIRK [GLT8D2]
Reply text: 2.45

Inquiry: Note down protein stability index recorded for LKPSWFDFGFAILGFAYAKEDKIM [MIA2]
Reply text: 2.34

Inquiry: Note down protein stability index recorded for SRREIRKIMGVEEEDDDDDDDDNL [ANKRD40]
Reply text: 5.53

Inquiry: Note down protein stability index recorded for QQNIPSTLLQDHENQRLFEMLGRK [WAS]
Reply text: 4.25

Inquiry: Note down protein stability index recorded for SIALRNISLAKGPPGPKGDQGDEG [SCARA5]
Reply text: 4.86

Inquiry: Note down protein stability index recorded for ETYHQQGQCQVLVQRSPWLMMRMG [TCAP]
Reply text: 2.23

Inquiry: Note down protein stability index recorded for QLKVVERTRTATMLCAASGNPDPE [PTPRD]
Reply text: 4.86
